# Test system: Urokinase plasminogen activator surface receptor (Homo sapiens), Q03405 [UNDEFINED MUTATION]
# Sequence (Q03405 whole entry, looked up, change not shown): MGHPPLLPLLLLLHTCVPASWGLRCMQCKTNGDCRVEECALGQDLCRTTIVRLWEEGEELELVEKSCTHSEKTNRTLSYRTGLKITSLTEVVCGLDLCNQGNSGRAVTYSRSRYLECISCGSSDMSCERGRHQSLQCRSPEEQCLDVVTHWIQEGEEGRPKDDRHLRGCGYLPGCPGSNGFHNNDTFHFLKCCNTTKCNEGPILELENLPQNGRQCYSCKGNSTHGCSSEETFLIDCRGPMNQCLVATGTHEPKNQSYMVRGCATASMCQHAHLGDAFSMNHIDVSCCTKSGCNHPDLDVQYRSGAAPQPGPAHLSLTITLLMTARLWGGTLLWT
# conditionContext: dose 100.0 µM
# Description: Binding affinity to uPAR H47C/N259C (unknown origin) mutant assessed as response unit at 100 uM by surface plasmon resonance (SPR) analysis relative to control
RU vs 3: at or above is MET, below is NOT MET.

# compound, category
rows = [
    ("CCCCCOC(=O)Nc1nc(=O)n([C@@H]2O[C@@H](O)[C@@H](O)[C@H]2O)cc1F", "NOT MET"),
]

I'd appreciate it if you could say whether `O=C(CCCN1CCC(O)(c2ccc(Cl)cc2)CC1)c1ccc(F)cc1` has RU at least equal to 3.
MET

Next record, please: COc1ccc(Cl)cc1C(=O)NCCc1ccc(S(=O)(=O)NC(=O)NC2CCCCC2)cc1 [GLYBURIDE]
MET

====

# System: Urokinase plasminogen activator surface receptor (Homo sapiens), Q03405 [UNDEFINED MUTATION]
# conditionContext: dose 100.0 µM
endpointLabel: RU
One number for each entry.

Solved entries:
# compound, endpointLabel, resultValue
measured = [
    ("CCN[C@H]1CN(CCCOC)S(=O)(=O)c2sc(S(N)(=O)=O)cc21", "RU", -1),
    ("O=C1CC2(CCCC2)CC(=O)N1CCCCN1CCN(c2ncccn2)CC1", "RU", 1),
    ("CN(C)CCC=C1c2ccccc2CCc2ccccc21", "RU", 11),
    ("CN(C)CCCC1(c2ccc(F)cc2)OCc2cc(C#N)ccc21 (stereo unspecified)", "RU", 7),
]

Please give RU, item by item, for the list that follows.
1. COC(=O)[C@@H](N)CCCNC(=N)N[N+](=O)[O-]
2. CC(C)(C)c1ccc(C(=O)CCCN2CCC(OC(c3ccccc3)c3ccccc3)CC2)cc1

1. 0
2. 1.5

Required: RU, one value per compound below.
1. Cc1ccc(S(=O)(=O)N[C@@H](CCCCN)C(=O)CCl)cc1
2. O=C(O)c1cccnc1Nc1cccc(C(F)(F)F)c1
3. CCc1c(C)[nH]c2c1C(=O)CC(CN1CCOCC1)C2 (stereo unspecified)
4. CNC(=C[N+](=O)[O-])NCCSCc1ccc(CN(C)C)o1

0
7
11
0

Entry `CN/C(=N\CCSCc1nc[nH]c1C)NC#N` has what RU?
-3

====

# Test system: Urokinase plasminogen activator surface receptor (Homo sapiens), Q03405 [UNDEFINED MUTATION]
# conditionContext: dose 100.0 µM
endpointLabel: RU
Answers are plain numbers.

// known answers, use as guide
# compound, resultValue
measured = [
    ("CNCCCC12CCC(c3ccccc31)c1ccccc12", 13),
    ("COc1ccc([C@@H]2Sc3ccccc3N(CCN(C)C)C(=O)[C@@H]2OC(C)=O)cc1", 12),
    ("CCN(CC)CCOC(=O)c1ccc(N)cc1", 17),
]

Give one value of RU per listed compound.
1. O=C(/C=C/c1ccc(O)c(O)c1)OCCc1ccccc1
2. CCc1c(C)[nH]c2c1C(=O)C(CN1CCOCC1)CC2 (configuration not stated)
3. CCN(CC)CCCC(C)Nc1c2ccc(Cl)cc2nc2ccc(OC)cc12 (configuration not stated)
4. CC(=O)OCC(CCn1cnc2cnc(N)nc21)COC(C)=O

1. 8
2. 8
3. 20
4. -4

====

# studyTarget: Urokinase plasminogen activator surface receptor (Homo sapiens, UniProt Q03405, H47C/N259C)
# Sequence (Q03405 23-305 H69C/N281C limits assumed): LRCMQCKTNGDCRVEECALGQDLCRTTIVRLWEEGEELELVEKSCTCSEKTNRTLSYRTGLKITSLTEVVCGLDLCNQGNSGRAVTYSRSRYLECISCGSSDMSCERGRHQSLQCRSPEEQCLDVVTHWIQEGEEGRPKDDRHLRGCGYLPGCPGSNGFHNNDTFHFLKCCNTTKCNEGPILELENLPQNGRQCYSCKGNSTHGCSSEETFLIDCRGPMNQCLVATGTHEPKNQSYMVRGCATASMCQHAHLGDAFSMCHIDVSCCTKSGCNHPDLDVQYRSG
# experimentalProtocol: Binding affinity to uPAR H47C/N259C (unknown origin) mutant assessed as equilibrium dissociation constant by surface plasmon resonance (SPR) analysis relative to control
endpointLabel: Kd (µM)
Answers are plain numbers, in µM.

The following compounds have reported results that may help.
# compound, endpointLabel, resultValue
rows = [
    ("O=C(O)CCc1nc(-c2ccccc2)c(-c2ccccc2)o1 [OXAPROZIN]", "Kd", 114),
    ("COc1ccc([C@@H]2Sc3ccccc3N(CCN(C)C)C(=O)[C@@H]2OC(C)=O)cc1 [DILTIAZEM]", "Kd", 39.2),
]

Field: Kd. Fill in for each record below.
1. COc1ccc(Cl)cc1C(=O)NCCc1ccc(S(=O)(=O)NC(=O)NC2CCCCC2)cc1 [GLYBURIDE]
2. O=C(CCCN1CCC(O)(c2ccc(Cl)cc2)CC1)c1ccc(F)cc1 [HALOPERIDOL]
3. CNCCCC12CCC(c3ccccc31)c1ccccc12 [MAPROTILINE]

1. 40.4
2. 41.2
3. 79.7

====

# System: Urokinase plasminogen activator surface receptor (Homo sapiens), Q03405 [UNDEFINED MUTATION]
# conditionContext: dose 100.0 µM
endpointLabel: RU
One number for each entry.

Use the examples below as a reference point.
# compound, resultValue
rows = [
    ("COc1ccc(CN(CCN(C)C)c2ccccc2)cc1", 1.7),
    ("CCCCC1C(=O)N(c2ccccc2)N(c2ccccc2)C1=O", 2.7),
    ("CC(C)=CCOc1c2occc2cc2ccc(=O)oc12", 1),
    ("O=C(O)CCc1nc(-c2ccccc2)c(-c2ccccc2)o1 [OXAPROZIN]", 20),
]

Look up RU for the entries below, preserving their order.
1. CNCC(O)c1ccc(O)cc1 (stereo not drawn)
2. CCOC(=O)Nc1ccc(NCc2ccc(F)cc2)nc1N
3. CC(CCc1ccc(O)cc1)NCCc1ccc(O)c(O)c1 (stereo not drawn)
4. NC(CO)C(=O)NNCc1ccc(O)c(O)c1O (stereo not drawn)

0.5
15
5.5
0
